The measured values listed here are drawn from patent US10945992B1.

test: TRM-201-PK-102 single-dose four-period crossover pharmacokinetic study, fasted healthy subjects; assay type: in vivo, human; details: human, plasma, oral, 20 mg, 102 study, 41-52 years, read-out: geometric mean Cmax
MEASUREMENT_TYPE: Cmax (ng/mL)
Response body: numeric value in ng/mL, unit text excluded.

Lab note: CS(=O)(=O)c1ccc(C2=C(c3ccccc3)C(=O)OC2)cc1 [TRM-201] gave Cmax of 242

====

Test: TRM-201-PK-101 single-dose pharmacokinetic study, 25 mg, fasted healthy subjects
Format: in vivo, human
Settings: human, plasma, oral, 25 mg, 25 mg formulation in TRM-201-PK-101, as stated in Example 6; read-out: Geometric mean Cmax
Protocol: A Single-Dose, Open-Label, Phase 1, Adaptive Pharmacokinetic Study of TRM-201 (Rofecoxib) 25 mg Administered to Healthy Subjects in a Fasting State, with Comparison to Historical Pharmacokinetic Parameters of Previously Marketed Rofecoxib and a Food-Effect Substudy (“TRM-201-PK-101” or “101 PK Study”) […] Pharmacokinetic samples will be analyzed using a validated assay for rofecoxib in human plasma. […] The PK parameters of rofecoxib will be analyzed based on the actual sampling times. […]
MEASUREMENT_TYPE: Cmax (ng/mL)
Response body: numeric value in ng/mL, unit text excluded.

Lab note: CS(=O)(=O)c1ccc(C2=C(c3ccccc3)C(=O)OC2)cc1 [TRM-201] gave Cmax of 320

====

experiment: TRM-201-PK-102 single-dose four-period crossover pharmacokinetic study, fasted healthy subjects; format: in vivo, human; conditions: human, plasma, oral, 20 mg, 102 study, body weight 77.1-90 kg, read-out: arithmetic mean AUC0-∞
MEASUREMENT_TYPE: AUC(0-inf) (µg·h/mL)
Response body: numeric value in µg·h/mL, unit text excluded.

Lab note: CS(=O)(=O)c1ccc(C2=C(c3ccccc3)C(=O)OC2)cc1 gave AUC(0-inf) of 3.25

====

test: TRM-201-PK-102 single-dose four-period crossover pharmacokinetic study, fasted healthy subjects; type: in vivo, human; conditions: human, plasma, oral, 17.5 mg, 102 study, 53-60 years, read-out: geometric mean AUC0-∞
MEASUREMENT_TYPE: AUC(0-inf) (ng·h/mL)
Response body: numeric value in ng·h/mL, unit text excluded.

Lab note: CS(=O)(=O)c1ccc(C2=C(c3ccccc3)C(=O)OC2)cc1 gave AUC(0-inf) of 3470

====

test: TRM-201-PK-102 single-dose four-period crossover pharmacokinetic study, fasted healthy subjects; format: in vivo, human; conditions: human, plasma, oral, 25 mg, 102 study, Hispanic or Latino subjects, read-out: arithmetic mean Cmax
MEASUREMENT_TYPE: Cmax (ng/mL)
Response body: numeric value in ng/mL, unit text excluded.

Lab note: CS(=O)(=O)c1ccc(C2=C(c3ccccc3)C(=O)OC2)cc1 gave Cmax of 358

====

assay: TRM-201-PK-102 single-dose four-period crossover pharmacokinetic study, fasted healthy subjects; type: in vivo, human; details: human, plasma, oral, 25 mg, 102 study, Black or African-American subjects, read-out: geometric mean Cmax
MEASUREMENT_TYPE: Cmax (ng/mL)
Response body: numeric value in ng/mL, unit text excluded.

Lab note: CS(=O)(=O)c1ccc(C2=C(c3ccccc3)C(=O)OC2)cc1 gave Cmax of 339

====

experiment: TRM-201-PK-101 single-dose pharmacokinetic study, 25 mg, fasted healthy subjects; format: in vivo, human; conditions: human, plasma, oral, 20 mg, extrapolated from 25 mg assuming dose linearity; read-out: extrapolated AUC0-∞
MEASUREMENT_TYPE: AUC(0-inf) (ng·h/mL)
Response body: numeric value in ng·h/mL, unit text excluded.

Lab note: CS(=O)(=O)c1ccc(C2=C(c3ccccc3)C(=O)OC2)cc1 [TRM-201] gave AUC(0-inf) of 3710

====

experiment: TRM-201-PK-101 single-dose pharmacokinetic study, 25 mg, fasted healthy subjects; assay type: in vivo, human; settings: human, plasma, oral, 25 mg, fasted, FIG. 25; read-out: geometric mean Cmax
MEASUREMENT_TYPE: Cmax (ng/mL)
Response body: numeric value in ng/mL, unit text excluded.

Lab note: CS(=O)(=O)c1ccc(C2=C(c3ccccc3)C(=O)OC2)cc1 [TRM-201] gave Cmax of 318

====

assay: TRM-201-PK-102 single-dose four-period crossover pharmacokinetic study, fasted healthy subjects; type: in vivo, human; conditions: human, plasma, oral, 17.5 mg, 102 study, Black or African-American subjects, read-out: geometric mean Cmax
MEASUREMENT_TYPE: Cmax (ng/mL)
Response body: numeric value in ng/mL, unit text excluded.

Lab note: CS(=O)(=O)c1ccc(C2=C(c3ccccc3)C(=O)OC2)cc1 [TRM-201] gave Cmax of 211

====

experiment: TRM-201-PK-102 single-dose four-period crossover pharmacokinetic study, fasted healthy subjects; type: in vivo, human; settings: human, plasma, oral, 17.5 mg, 102 study, 18-40 years, read-out: geometric mean Cmax
MEASUREMENT_TYPE: Cmax (ng/mL)
Response body: numeric value in ng/mL, unit text excluded.

Lab note: CS(=O)(=O)c1ccc(C2=C(c3ccccc3)C(=O)OC2)cc1 gave Cmax of 229

====

assay: TRM-201-PK-102 single-dose four-period crossover pharmacokinetic study, fasted healthy subjects; type: in vivo, human; settings: human, plasma, oral, 20 mg, 45 minutes, read-out: arithmetic mean plasma concentration
MEASUREMENT_TYPE: concentration at 45 minutes (ng/mL)
Response body: numeric value in ng/mL, unit text excluded.

Lab note: CS(=O)(=O)c1ccc(C2=C(c3ccccc3)C(=O)OC2)cc1 gave concentration at 45 minutes of 121

====

test: TRM-201-PK-102 single-dose four-period crossover pharmacokinetic study, fasted healthy subjects; format: in vivo, human; conditions: human, plasma, oral, 17.5 mg, 102 study, body weight 47-70 kg, read-out: geometric mean AUC0-∞
MEASUREMENT_TYPE: AUC(0-inf) (ng·h/mL)
Response body: numeric value in ng·h/mL, unit text excluded.

Lab note: CS(=O)(=O)c1ccc(C2=C(c3ccccc3)C(=O)OC2)cc1 [TRM-201] gave AUC(0-inf) of 2930

====

experiment: TRM-201-PK-102 single-dose four-period crossover pharmacokinetic study, fasted healthy subjects; assay type: in vivo, human; conditions: male, human, plasma, oral, 20 mg, 102 study, males, read-out: arithmetic mean Cmax
MEASUREMENT_TYPE: Cmax (ng/mL)
Response body: numeric value in ng/mL, unit text excluded.

Lab note: CS(=O)(=O)c1ccc(C2=C(c3ccccc3)C(=O)OC2)cc1 gave Cmax of 234

====

assay: TRM-201-PK-101 single-dose pharmacokinetic study, 25 mg, fasted healthy subjects; assay type: in vivo, human; settings: human, plasma, oral, 20 mg, extrapolated from 25 mg assuming dose linearity; read-out: extrapolated Cmax
MEASUREMENT_TYPE: Cmax (ng/mL)
Response body: numeric value in ng/mL, unit text excluded.

Lab note: CS(=O)(=O)c1ccc(C2=C(c3ccccc3)C(=O)OC2)cc1 gave Cmax of 254

====

assay: TRM-201-PK-102 single-dose four-period crossover pharmacokinetic study, fasted healthy subjects; assay type: in vivo, human; conditions: female, human, plasma, oral, 20 mg, 102 study, females, read-out: geometric mean Cmax
MEASUREMENT_TYPE: Cmax (ng/mL)
Response body: numeric value in ng/mL, unit text excluded.

Lab note: CS(=O)(=O)c1ccc(C2=C(c3ccccc3)C(=O)OC2)cc1 gave Cmax of 293

====

assay: TRM-201-PK-102 single-dose four-period crossover pharmacokinetic study, fasted healthy subjects; type: in vivo, human; conditions: human, plasma, oral, 17.5 mg, 102 study, body weight 70.1-77 kg, read-out: arithmetic mean AUC0-∞
MEASUREMENT_TYPE: AUC(0-inf)
Answer format: value, then unit.

Lab note: CS(=O)(=O)c1ccc(C2=C(c3ccccc3)C(=O)OC2)cc1 gave AUC(0-inf) of 3890 ng·h/mL

====

assay: TRM-201-PK-102 single-dose four-period crossover pharmacokinetic study, fasted healthy subjects; format: in vivo, human; conditions: female, human, plasma, oral, 12.5 mg, 102 study, females, read-out: arithmetic mean AUC0-∞
MEASUREMENT_TYPE: AUC(0-inf) (ng·h/mL)
Response body: numeric value in ng·h/mL, unit text excluded.

Lab note: CS(=O)(=O)c1ccc(C2=C(c3ccccc3)C(=O)OC2)cc1 gave AUC(0-inf) of 2240

====

test: TRM-201-PK-102 single-dose four-period crossover pharmacokinetic study, fasted healthy subjects; assay type: in vivo, human; conditions: female, human, plasma, oral, 20 mg, 102 study, females, read-out: geometric mean AUC0-∞
MEASUREMENT_TYPE: AUC(0-inf) (ng·h/mL)
Response body: numeric value in ng·h/mL, unit text excluded.

Lab note: CS(=O)(=O)c1ccc(C2=C(c3ccccc3)C(=O)OC2)cc1 gave AUC(0-inf) of 4160

====

Experiment: TRM-201-PK-102 single-dose four-period crossover pharmacokinetic study, fasted healthy subjects
Assay type: in vivo, human
Settings: female, human, plasma, oral, 12.5 mg, 102 study, females, read-out: geometric mean AUC0-∞
Experimental: A Single-Dose, Open-Label, Phase 1, Four-Period Crossover Pharmacokinetic Study of TRM-201 (Rofecoxib) 12.5 mg, 17.5 mg, 20 mg and 25 mg Administered to Healthy Subjects in a Fasting State, with Comparison to Historical Pharmacokinetic Parameters of Previously Marketed Rofecoxib (“TRM-201-PK-102” or “102 PK Study”) […] In each of the four dosing periods, subjects fasted overnight for at least 10 hours before study drug dosing. […] Pharmacokinetic and safety endpoints were evaluated. […]
MEASUREMENT_TYPE: AUC(0-inf) (ng·h/mL)
Response body: numeric value in ng·h/mL, unit text excluded.

Lab note: CS(=O)(=O)c1ccc(C2=C(c3ccccc3)C(=O)OC2)cc1 gave AUC(0-inf) of 2170
